# test-target: human Dual Specificity Protein Phosphatase 3 (DUSP3), DUSP3 (gene 1845)
# procedure-summary: NVS_ENZ_hDUSP3: NovaScreen (NVS) Enzymatic Assay for human Dual Specificity Protein Phosphatase 3 (DUSP3) (AID 2283152);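 also: phosphatase activity of recombinant human DUSP3 on a fluorogenic substrate without cells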
The source made the active and inactive calls. The calls were made as follows: active = hit-call score of the fitted dose curve at least 0.9, where 1 is the maximum; inconclusive = response in the unintended direction; inactive = score below 0.9.
Classes used: T (active), F (inactive)

compound | category-label
CCCC(=NOCC)C1=C(O)CC(CC(C)SCC)CC1=O (centres undefined) | F
COC(=O)N(C(=O)N1CO[C@@]2(C(=O)OC)Cc3cc(Cl)ccc3C2=N1)c1ccc(OC(F)(F)F)cc1 | F
CC(C)N1C(=O)N(c2ccccc2)CSC1=NC(C)(C)C | T
CCOC(=O)C(C)OC(=O)c1cc(Oc2ccc(C(F)(F)F)cc2Cl)ccc1[N+](=O)[O-] (centres undefined) | F

* * *

# Read-out: ABC Transporter (ABCB11), ABCB11 (gene 8647)
# procedure-summary: LTEA_HepaRG_ABCB11: Life Technologies and Expression Analysis (LTEA) Assay for ABC Transporter (ABCB11) using HepaRG (AID 2283463)
# conditions-used: mRNA level, 48 h; actives raise or lower the signal
Calls of active or inactive are those of the source. Rule for the calls: active = hit-call score of the fitted dose curve at least 0.9, where 1 is the maximum; inactive = score below 0.9.
Labels: True for active, False for inactive

compound | category-label
OC(c1ccc(Cl)cc1)(c1ccc(Cl)cc1)C(Cl)(Cl)Cl | True
CCNC(=O)NC(=O)C(C#N)=NOC | False
Cc1c(COC(=O)[C@@H]2[C@H](/C=C(\Cl)C(F)(F)F)C2(C)C)cccc1-c1ccccc1 | False
CS(=O)(=O)c1cc(C(F)(F)F)ccc1C(=O)c1cnoc1C1CC1 | False
N#CN=C1SCCN1Cc1ccc(Cl)nc1 | False
CC(C)Oc1cccc(NC(=O)c2ccccc2C(F)(F)F)c1 | False
CC(C)=CC1C(C(=O)OCc2coc(Cc3ccccc3)c2)C1(C)C (stereo unspecified) | True
CC(C)Nc1nc(Cl)nc(NC(C)C)n1 | True
COC(=O)c1c(C(F)F)nc(C(F)(F)F)c(C2=NCCS2)c1CC(C)C | False
CCOP(=O)(OCC)Oc1nc(Cl)c(Cl)cc1Cl | True
CC1(C)C(C(=O)OC(C#N)c2cccc(Oc3ccccc3)c2)C1(C)C (stereo unspecified) | False

* * *

# test-target: rat CYP2D1, Cyp2d1 (gene 266684) (UniProt P10633)
# Sequence (P10633 whole entry, looked up): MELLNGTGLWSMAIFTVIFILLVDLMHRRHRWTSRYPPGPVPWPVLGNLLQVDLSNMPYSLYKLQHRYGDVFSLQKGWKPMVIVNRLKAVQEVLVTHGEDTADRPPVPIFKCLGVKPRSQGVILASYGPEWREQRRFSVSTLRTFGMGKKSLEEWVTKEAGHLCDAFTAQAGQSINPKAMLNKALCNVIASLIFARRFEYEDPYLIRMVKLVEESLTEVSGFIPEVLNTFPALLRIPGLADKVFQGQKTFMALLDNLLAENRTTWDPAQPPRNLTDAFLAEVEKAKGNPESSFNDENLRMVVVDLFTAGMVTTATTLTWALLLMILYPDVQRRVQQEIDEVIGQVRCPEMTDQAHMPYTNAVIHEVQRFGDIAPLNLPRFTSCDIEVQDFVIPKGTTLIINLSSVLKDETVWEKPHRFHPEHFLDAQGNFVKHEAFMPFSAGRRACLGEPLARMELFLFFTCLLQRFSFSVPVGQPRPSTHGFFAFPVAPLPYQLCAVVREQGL
# procedure-summary: NVS_ADME_rCYP2D1: NovaScreen (NVS) CYP450-related Enzyme Activity (ADME) Assay for rat CYP2D1 (AID 2283122)
Inconclusive results are not listed. The source made the active and inactive calls. The calls were made as follows: active = hit-call score of the fitted dose curve at least 0.9, where 1 is the maximum; inconclusive = response in the unintended direction; inactive = score below 0.9.
The entries below are paired with their reported AC50.

compound | AC50
CC(C)(C)C(=O)C(Oc1ccc(Cl)cc1)n1cncn1 (configuration not stated) | 6.43 µM (active)
COP(=S)(OC)SCn1nnc2ccccc2c1=O | 6.92 µM (active)
CCCCC(C#N)(Cn1cncn1)c1ccc(Cl)cc1 (configuration not stated) | 8.64 µM (active)
COC(=O)c1c(C(F)F)nc(C(F)(F)F)c(C2=NCCS2)c1CC(C)C | 5.48 µM (active)
Nc1cnn(-c2ccccc2)c(=O)c1Cl | 2.37 µM (active)
CCCCC(O)(Cn1cncn1)c1ccc(Cl)cc1Cl (configuration not stated) | 0.951 µM (active)
CC(C)=CC1C(C(=O)OCc2coc(Cc3ccccc3)c2)C1(C)C (configuration not stated) | 5.37 µM (active)
